# tgt: T1, IL10 receptor (IL10 receptor subunit alpha IL10Ra and beta subunit IL10Rb) on Ramos/STAT3-Luc and … (UniProt Q13651 22-578; Q08334 20-325, limits assumed)
# T1 sequence (looked up) 1: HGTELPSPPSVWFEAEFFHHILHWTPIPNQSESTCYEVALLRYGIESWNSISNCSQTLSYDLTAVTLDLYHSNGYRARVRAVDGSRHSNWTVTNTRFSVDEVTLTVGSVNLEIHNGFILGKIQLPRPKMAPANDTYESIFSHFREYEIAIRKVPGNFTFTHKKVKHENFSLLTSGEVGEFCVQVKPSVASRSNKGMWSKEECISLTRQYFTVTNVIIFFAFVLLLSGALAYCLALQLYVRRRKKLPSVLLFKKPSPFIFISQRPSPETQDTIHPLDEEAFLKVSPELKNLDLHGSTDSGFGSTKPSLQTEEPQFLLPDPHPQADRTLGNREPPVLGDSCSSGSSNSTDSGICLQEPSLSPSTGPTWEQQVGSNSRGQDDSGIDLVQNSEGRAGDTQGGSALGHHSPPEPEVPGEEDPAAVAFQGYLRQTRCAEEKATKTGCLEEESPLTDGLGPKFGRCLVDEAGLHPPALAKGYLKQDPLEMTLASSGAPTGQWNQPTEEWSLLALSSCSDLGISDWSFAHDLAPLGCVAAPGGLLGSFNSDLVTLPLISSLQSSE
# T1 sequence (looked up) 2: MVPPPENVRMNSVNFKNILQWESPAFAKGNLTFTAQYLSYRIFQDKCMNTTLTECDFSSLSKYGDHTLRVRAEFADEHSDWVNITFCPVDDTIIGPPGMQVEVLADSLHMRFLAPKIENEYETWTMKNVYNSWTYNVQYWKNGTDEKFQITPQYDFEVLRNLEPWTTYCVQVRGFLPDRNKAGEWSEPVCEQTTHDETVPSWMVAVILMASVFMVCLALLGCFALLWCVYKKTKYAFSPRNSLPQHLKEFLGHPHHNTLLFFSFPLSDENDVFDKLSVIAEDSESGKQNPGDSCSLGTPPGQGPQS
# experiment description: cell-based or functional assay
property measured: EC50 of luciferase activity, Ramos/Stat3-Luc reporter cells (nM)
Hi! Could you send only the number? It should be in nM, unit omitted.

Param item = IL10M4 (Fc-2XG4S-hIL10; Fc is IgG4s) (Fc fusion) ESKYGPPCPPCPAPPVAGPSVFLFPPKPKDTLMISRTPEVTCVVVDVSQEDPEVQFNWYVDGVEVHNAKTKPREEQFNSTYRVVSVLTVLHQDWLNGKEYKCKVSNKGLPSSIEKTISKAKGQPREPQVYTLPPSQEEMTKNQVSLTCLVKGFYPSDIAVEWESNGQPENNYKTTPPVLDSDGSFFLYSRLTVDKSRWQEGNVFSCSVMHEALHNHYTQKSLSLSLGKGGGGSGGGGSSPGQGTQSENSCTHFPGNLPNMLRDLRDAFSRVKTFFQMKDQLDNLLLKESLLEDFKGYLGCQALSEMIQFYLEEVMPQAENQDPDIKAHVNSLGENLKTLRLRLRRCHRFLPCENKSKAVEQVKNAFNKLQEKGIYKAMSEFDIFINYIEAYMTMKIRN ; retrieve measured EC50 of luciferase activity, Ramos/Stat3-Luc reporter cells.
0.115

Item: IL10M6 (hIL10-2XG4S-Fc; Fc is IgG4s) (Fc fusion) SPGQGTQSENSCTHFPGNLPNMLRDLRDAFSRVKTFFQMKDQLDNLLLKESLLEDFKGYLGCQALSEMIQFYLEEVMPQAENQDPDIKAHVNSLGENLKTLRLRLRRCHRFLPCENKSKAVEQVKNAFNKLQEKGIYKAMSEFDIFINYIEAYMTMKIRNGGGGSGGGGSESKYGPPCPPCPAPPVAGPSVFLFPPKPKDTLMISRTPEVTCVVVDVSQEDPEVQFNWYVDGVEVHNAKTKPREEQFNSTYRVVSVLTVLHQDWLNGKEYKCKVSNKGLPSSIEKTISKAKGQPREPQVYTLPPSQEEMTKNQVSLTCLVKGFYPSDIAVEWESNGQPENNYKTTPPVLDSDGSFFLYSRLTVDKSRWQEGNVFSCSVMHEALHNHYTQKSLSLSLGK
0.127

Ok, now IL10M8 (hIL10-Fc; Fc is IgG4s) (Fc fusion) SPGQGTQSENSCTHFPGNLPNMLRDLRDAFSRVKTFFQMKDQLDNLLLKESLLEDFKGYLGCQALSEMIQFYLEEVMPQAENQDPDIKAHVNSLGENLKTLRLRLRRCHRFLPCENKSKAVEQVKNAFNKLQEKGIYKAMSEFDIFINYIEAYMTMKIRNESKYGPPCPPCPAPPVAGPSVFLFPPKPKDTLMISRTPEVTCVVVDVSQEDPEVQFNWYVDGVEVHNAKTKPREEQFNSTYRVVSVLTVLHQDWLNGKEYKCKVSNKGLPSSIEKTISKAKGQPREPQVYTLPPSQEEMTKNQVSLTCLVKGFYPSDIAVEWESNGQPENNYKTTPPVLDSDGSFFLYSRLTVDKSRWQEGNVFSCSVMHEALHNHYTQKSLSLSLGK
0.268
